Measured inhibition by item
# tgt: Neuropeptide Y receptor type 2 (Homo sapiens) (UniProt P49146)
# Sequence (P49146 whole entry, looked up): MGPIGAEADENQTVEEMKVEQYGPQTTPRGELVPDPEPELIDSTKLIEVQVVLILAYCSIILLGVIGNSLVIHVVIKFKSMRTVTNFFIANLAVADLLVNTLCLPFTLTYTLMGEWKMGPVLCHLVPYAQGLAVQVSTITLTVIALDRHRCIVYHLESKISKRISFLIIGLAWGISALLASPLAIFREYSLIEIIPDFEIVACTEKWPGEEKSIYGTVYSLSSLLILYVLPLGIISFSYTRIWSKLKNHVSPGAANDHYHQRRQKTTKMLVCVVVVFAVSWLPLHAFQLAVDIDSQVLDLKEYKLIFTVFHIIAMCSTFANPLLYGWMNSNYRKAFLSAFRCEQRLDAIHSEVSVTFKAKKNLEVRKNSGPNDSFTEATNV
# measurementProtocol: blockers of human neuropeptide Y Y2 receptor – cell-based, primary screen (AID 793);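 also: 0% = vehicle with agonist challenge and 100% = reference antagonist with challenge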
# experimentalContext: NPY-Y2 expressing cells, antagonist mode; at 2.7 µM; active compounds read high
Hit rate of the full screen: of about 140,000 compounds, about 1,400 (1%) were called active. What follows is part of a selection rich in actives, with near analogues and random picks from the rest.

{"columns": ["molecule", "inhibition (%)"],
 "data": [
  ["CN(C)Cc1ccc(F)cc1Sc1cc(Cl)ccc1Cl", 20.2],
  ["CCOC(=O)c1c(C)n(C)c2ccc(OC)c(NS(=O)(=O)CC)c12", -1.01],
  ["O=C(Cn1nc(CNc2ccc(Cl)cc2)[n+]2c1CCCCC2)c1ccc(Cl)cc1", 0.53],
  ["CC(C)n1c(C(O)c2ccccc2)nc2ccccc21 (configuration not stated)", 1.4],
  ["c1ccc(-c2cc3c(NCC4COc5ccccc5O4)ncnc3s2)cc1 (configuration not stated)", 22.8],
  ["CCCCNC(=O)C1(c2ccc(OC)cc2)CCOCC1", 3.6],
  ["CCOc1ccc(S(=O)(=O)N/N=C(\\C)c2ccc(Cl)c(Cl)c2Cl)cc1", 17.4],
  ["Cc1cc(C)nc(NC(=O)c2cccc([N+](=O)[O-])c2)c1", 2.05],
  ["O=C(CN1C(=O)NC2(CCCCCC2)C1=O)NCc1cccs1", -3.2],
  ["CCN(c1ccc(NC(=O)COC(=O)CCc2nc3ccccc3n2-c2ccccc2)cc1)C(C)C", -0.2],
  ["O=C(CN1C(=O)NC2(CCCCC2)C1=O)NCCC1=CCCCC1", 0.27],
  ["CCOc1ccc(S(=O)(=O)NCC2CCCO2)cc1 (configuration not stated)", 2.22],
  ["CC1CCN(C(=S)NC2CC3CCC2C3)CC1 (configuration not stated)", 1.13],
  ["COc1ccc(-c2noc(CSc3ccc(C)cc3)n2)cc1", 16.5],
  ["O=C(Nc1cccc(S(=O)(=O)N2CCCCC2)c1)c1ccc2c(c1)OCO2", 3.64],
  ["S=C(NCC1COc2ccccc2O1)Nc1ccc(Br)cc1 (configuration not stated)", 6.55],
  ["C/C(=N\\NS(=O)(=O)c1ccc(Br)cc1)c1cccs1", 3.39],
  ["O=C(Nc1ccc(N2C(=O)c3cccc4cccc(c34)C2=O)cc1)c1ccc(N2CCCCC2)c([N+](=O)[O-])c1", 0.97],
  ["O=C(C(=O)N1CCc2ccccc2C1)N1CCc2ccccc2C1", -0.59],
  ["Cc1ccccc1OCC(=O)Nc1nc(C)c(C(=O)N(C)C)s1", 5.58],
  ["O=C(NCc1cccnc1)c1cccnc1Sc1ccc(Cl)cc1", -0.63],
  ["Cc1cc(C(=O)OCC(=O)Nc2nnc(C(C)C)s2)c2ccccc2n1", 4.1],
  ["CCOc1cccc(SCc2noc(C(=O)NC(C)C)c2C(=O)O)c1", 6.09],
  ["O=C(NC1CCN(Cc2ccccc2)CC1)c1c(F)cccc1F", 0.52],
  ["O=C(CNC(c1ccccc1)c1ccccc1)Nc1ccc(F)cc1", 7.16],
  ["Cc1ccc2c(c1)C(c1ccccc1)N(C(=O)c1ccc(S(=O)(=O)N3CCOCC3)cc1)CC(=O)N2 (configuration not stated)", 0.56],
  ["C=CCSc1nc2c(c(=O)[nH]1)C(C(C)C)C(C#N)=C(N)O2 (configuration not stated)", 121],
  ["COc1cc(/C=C/C(=O)O)cc(S(=O)(=O)Nc2ccccc2SC)c1OC", 1.33],
  ["Cc1cc2c(c(=O)n1C)C(C(C)C)C(C#N)=C(N)O2 (configuration not stated)", -0.27],
  ["COc1ccc(OCCCC(=O)NCCc2ccccc2)cc1", 4.05],
  ["Cc1ccc(C(CC(=O)O)Nc2nc(N3CCCCC3)nc(N3CCCCC3)n2)cc1 (configuration not stated)", 1.53],
  ["CCc1cccc(NC(=O)CCC(=O)O)c1", 1.58],
  ["CCCCNC(=O)c1onc(CSc2cccc(OC)c2)c1C(=O)O", 28],
  ["CCCCOc1ccc(C(=O)NCc2ccncc2)cc1", -1.04],
  ["NC(=O)COc1ccc2c3c(c(=O)oc2c1)CCCCC3", 0.83],
  ["C=CCOC(=O)C1=C(C)OC(N)=C(C#N)C1c1ccc(F)cc1 (configuration not stated)", 7.81],
  ["COc1ccc(-c2noc(COc3ccc(Cl)c(C)c3)n2)cc1", 18.2]
]}
